Source: ChEMBL document CHEMBL1153373

experiment description: Therapeutic index, ratio of hemolytic activity in human RBC to MIC for Streptococcus pyogenes
run conditions: human red blood cells (RBC), read-out: TI
Square brackets hold non-standard residues; d marks the D form. Peptide text beside a SMILES is read from it. Orn = NCCC[C@H](N)C(=O)O
metric: selectivity ratio

- compound: "CC(C)C[C@@H]1NC(=O)[C@H](CCCN)NC(=O)[C@H](C(C)C)NC(=O)[C@@H]2CCCN2C(=O)[C@@H](Cc2ccccc2)NC(=O)[C@H](CC(C)C)NC(=O)[C@H](CCCN)NC(=O)[C@H](C(C)C)NC(=O)[C@@H]2CCCN2C(=O)[C@@H](Cc2ccccc2)NC1=O [GRAMICIDIN S] (cyclo(L[dF]PV[Orn]L[dF]PV[Orn]))"
  metric: "selectivity ratio"
  meas value: 200

====

experiment description: Toxicity in human RBC assessed as hemolytic activity at 100 ug/ml after 24 hrs relative to control
Type: cell-based, Erythrocyte
run conditions: human red blood cells (RBC), read-out: Activity
Square brackets hold non-standard residues; d marks the D form. Peptide text beside a SMILES is read from it. Orn = NCCC[C@H](N)C(=O)O

- compound: "CC(C)C[C@@H]1NC(=O)[C@H](CCCN)NC(=O)[C@H](C(C)C)NC(=O)[C@@H]2CCCN2C(=O)[C@@H](Cc2ccccc2)NC(=O)[C@H](CC(C)C)NC(=O)[C@H](CCCN)NC(=O)[C@H](C(C)C)NC(=O)[C@@H]2CCCN2C(=O)[C@@H](Cc2ccccc2)NC1=O [GRAMICIDIN S] (cyclo(L[dF]PV[Orn]L[dF]PV[Orn]))"
  hemolysis at 24 h, 100 ug/ml / %: 100

====

System: Staphylococcus epidermidis
experiment description: Antimicrobial activity against Staphylococcus epidermidis after 24 hrs by standard microtiter dilution method
Assay type: functional
Square brackets hold non-standard residues; d marks the D form. Peptide text beside a SMILES is read from it. Orn = NCCC[C@H](N)C(=O)O
metric: MIC (µg/mL)

- compound: "CC(C)C[C@@H]1NC(=O)[C@H](CCCN)NC(=O)[C@H](C(C)C)NC(=O)[C@@H]2CCCN2C(=O)[C@@H](Cc2ccccc2)NC(=O)[C@H](CC(C)C)NC(=O)[C@H](CCCN)NC(=O)[C@H](C(C)C)NC(=O)[C@@H]2CCCN2C(=O)[C@@H](Cc2ccccc2)NC1=O [GRAMICIDIN S] (cyclo(L[dF]PV[Orn]L[dF]PV[Orn]))"
  subject of test: "Staphylococcus epidermidis"
  result units: "µg/mL"
  meas value: 2
- compound: "CC(C)C[C@@H]1NC(=O)[C@H](CCCCN)NC(=O)[C@H](C(C)C)NC(=O)[C@@H]2CCCN2C(=O)[C@@H](Cc2ccc(O)cc2)NC(=O)[C@H](CC(C)C)NC(=O)[C@H](CCCCN)NC(=O)[C@H](C(C)C)NC(=O)[C@H](CCCCN)NC(=O)[C@@H]2CCCN2C(=O)[C@@H](Cc2ccc(O)cc2)NC(=O)[C@H](CCCCN)NC1=O (cyclo(KLK[dY]PKVKL[dY]PV))"
  subject of test: "Staphylococcus epidermidis"
  result units: "µg/mL"
  meas value: 64
- compound: "CC(C)C[C@@H]1NC(=O)[C@H](CCCCN)NC(=O)[C@H](C(C)C)NC(=O)[C@@H]2CCCN2C(=O)[C@@H](Cc2ccc(O)cc2)NC(=O)[C@H](CC(C)C)NC(=O)[C@H](CCCCN)NC(=O)[C@H](C(C)C)NC(=O)[C@H](CCCCN)NC(=O)[C@H](CC(C)C)NC(=O)[C@@H]2CCCN2C(=O)[C@@H](Cc2ccc(O)cc2)NC(=O)[C@H](C(C)C)NC1=O"
  subject of test: "Staphylococcus epidermidis"
  result units: "µg/mL"
  meas value: 4

====

System: Klebsiella pneumoniae
experiment description: Antimicrobial activity against Klebsiella pneumoniae after 24 hrs by standard microtiter dilution method
Type: functional
Square brackets hold non-standard residues; d marks the D form. Peptide text beside a SMILES is read from it.
metric: MIC (µg/mL)

- compound: "CC(C)C[C@@H]1NC(=O)[C@H](CCCCN)NC(=O)[C@H](C(C)C)NC(=O)[C@@H]2CCCN2C(=O)[C@@H](Cc2ccc(O)cc2)NC(=O)[C@H](CC(C)C)NC(=O)[C@H](CCCCN)NC(=O)[C@H](C(C)C)NC(=O)[C@H](CCCCN)NC(=O)[C@H](CC(C)C)NC(=O)[C@H](CCCCN)NC(=O)[C@@H]2CCCN2C(=O)[C@@H](Cc2ccc(O)cc2)NC(=O)[C@H](C(C)C)NC(=O)[C@H](CCCCN)NC1=O (cyclo(VKLKV[dY]PKLKVKL[dY]P))"
  subject of test: "Klebsiella pneumoniae"
  meas value: 8

====

MIC reference
Tested on: Staphylococcus epidermidis
experiment description: Antimicrobial activity against Staphylococcus epidermidis after 24 hrs by standard microtiter dilution method
Type: functional
Square brackets hold non-standard residues; d marks the D form. Peptide text beside a SMILES is read from it.
metric: MIC

- compound: "CC(C)C[C@@H]1NC(=O)[C@H](CCCCN)NC(=O)[C@H](C(C)C)NC(=O)[C@@H]2CCCN2C(=O)[C@@H](Cc2ccc(O)cc2)NC(=O)[C@H](CC(C)C)NC(=O)[C@H](CCCCN)NC(=O)[C@H](C(C)C)NC(=O)[C@@H]2CCCN2C(=O)[C@@H](Cc2ccc(O)cc2)NC1=O (cyclo(KL[dY]PVKL[dY]PV))"
  subject of test: "Staphylococcus epidermidis"
  meas value: "2 µg/mL"
- compound: "CC(C)C[C@@H]1NC(=O)[C@H](CCCCN)NC(=O)[C@@H]2CCCN2C(=O)[C@@H](Cc2ccc(O)cc2)NC(=O)[C@H](CCCCN)NC(=O)[C@H](C(C)C)NC(=O)[C@H](CC(C)C)NC(=O)[C@H](CCCCN)NC(=O)[C@H](C(C)C)NC(=O)[C@@H]2CCCN2C(=O)[C@@H](Cc2ccc(O)cc2)NC(=O)[C@H](CC(C)C)NC(=O)[C@H](CCCCN)NC(=O)[C@H](C(C)C)NC(=O)[C@H](CCCCN)NC1=O (cyclo(VKLVK[dY]PKLKVKL[dY]P))"
  subject of test: "Staphylococcus epidermidis"
  meas value: "16 µg/mL"
- compound: "CC(C)C[C@@H]1NC(=O)[C@H](CCCCN)NC(=O)[C@H](C(C)C)NC(=O)[C@H](CCCCN)NC(=O)[C@H](CC(C)C)NC(=O)[C@@H]2CCCN2C(=O)[C@@H](Cc2ccc(O)cc2)NC(=O)[C@H](C(C)C)NC(=O)[C@H](CCCCN)NC(=O)[C@H](CCCCN)NC(=O)[C@H](C(C)C)NC(=O)[C@@H]2CCCN2C(=O)[C@@H](Cc2ccc(O)cc2)NC1=O (cyclo(KKV[dY]PLKVKL[dY]PV))"
  subject of test: "Staphylococcus epidermidis"
  meas value: "2 µg/mL"

====

experiment description: Therapeutic index, ratio of hemolytic activity in human RBC to MIC for Klebsiella pneumoniae
run conditions: human red blood cells (RBC), read-out: TI
Square brackets hold non-standard residues; d marks the D form. Peptide text beside a SMILES is read from it. Orn = NCCC[C@H](N)C(=O)O

- compound: "CC(C)C[C@@H]1NC(=O)[C@H](CCCN)NC(=O)[C@H](C(C)C)NC(=O)[C@@H]2CCCN2C(=O)[C@@H](Cc2ccccc2)NC(=O)[C@H](CC(C)C)NC(=O)[C@H](CCCN)NC(=O)[C@H](C(C)C)NC(=O)[C@@H]2CCCN2C(=O)[C@@H](Cc2ccccc2)NC1=O [GRAMICIDIN S] (cyclo(L[dF]PV[Orn]L[dF]PV[Orn]))"
  selectivity ratio: 6

====

experiment description: Therapeutic index, ratio of hemolytic activity in human RBC to MIC for Staphylococcus epidermidis
run conditions: human red blood cells (RBC), read-out: TI
Square brackets hold non-standard residues; d marks the D form. Peptide text beside a SMILES is read from it. Orn = NCCC[C@H](N)C(=O)O

- compound: "CC(C)C[C@@H]1NC(=O)[C@H](CCCN)NC(=O)[C@H](C(C)C)NC(=O)[C@@H]2CCCN2C(=O)[C@@H](Cc2ccccc2)NC(=O)[C@H](CC(C)C)NC(=O)[C@H](CCCN)NC(=O)[C@H](C(C)C)NC(=O)[C@@H]2CCCN2C(=O)[C@@H](Cc2ccccc2)NC1=O [GRAMICIDIN S] (cyclo(L[dF]PV[Orn]L[dF]PV[Orn]))"
  selectivity ratio: 50
- compound: "CC(C)C[C@@H]1NC(=O)[C@H](CCCCN)NC(=O)[C@H](C(C)C)NC(=O)[C@@H]2CCCN2C(=O)[C@@H](Cc2ccc(O)cc2)NC(=O)[C@H](CC(C)C)NC(=O)[C@H](CCCCN)NC(=O)[C@H](C(C)C)NC(=O)[C@@H]2CCCN2C(=O)[C@@H](Cc2ccc(O)cc2)NC(=O)[C@H](CCCCN)NC1=O (cyclo(VKLK[dY]PVKL[dY]P))"
  selectivity ratio: 128
